src = ChEMBL document CHEMBL1177674

- ASSAYED SYSTEM: KiSS-1 receptor (Homo sapiens)
- Sequence (Q969F8 whole entry): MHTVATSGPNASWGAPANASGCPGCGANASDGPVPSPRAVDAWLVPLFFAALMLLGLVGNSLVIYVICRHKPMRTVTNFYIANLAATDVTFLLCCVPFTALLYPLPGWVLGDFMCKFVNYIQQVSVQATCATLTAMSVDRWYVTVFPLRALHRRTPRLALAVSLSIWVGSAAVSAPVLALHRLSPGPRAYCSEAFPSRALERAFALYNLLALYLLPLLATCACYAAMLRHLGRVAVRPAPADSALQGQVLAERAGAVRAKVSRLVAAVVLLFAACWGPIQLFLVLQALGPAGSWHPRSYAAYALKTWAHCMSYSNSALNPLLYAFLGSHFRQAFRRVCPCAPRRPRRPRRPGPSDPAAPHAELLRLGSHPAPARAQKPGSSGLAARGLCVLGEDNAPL
- TEST PROTOCOL: Displacement of [125I]metastin from human GPR54 receptor expressed in CHO cells
- Type: cell-based
pIC50: −log10 of the molar value.
MEASUREMENT KIND: pIC50

A: CN(C)CCN(C)c1cccc(-c2cc(-c3ccc(F)cc3O)nc(NC(=O)c3ccco3)c2C#N)c1
B: CCN(C)CCC(=O)Nc1cccc(-c2cc(-c3ccc(F)cc3O)nc(NC(=O)c3ccco3)c2C#N)c1
C: CN(C)CC(=O)Nc1cccc(-c2cc(-c3ccccc3O)nc(NC(=O)c3cccs3)c2C#N)c1
D: CCN(CC)CCC(=O)Nc1cccc(-c2cc(-c3ccc(F)cc3O)nc(NC(=O)c3ccco3)c2C#N)c1
E: CNCCC(=O)Nc1cccc(-c2cc(-c3ccc(F)cc3O)nc(NC(=O)c3ccco3)c2C#N)c1
Rank by decreasing pIC50 the items listed here. Respond with the label ranking, as requested.
E, B, D, A, C
(E: 8.34, B: 8.00, D: 7.80, A: 7.52, C: 6.74)
